target: WT-TTR (Homo sapiens); construct: made in house; assay: Stagnant acid-mediated TTR aggregation (fibril formation) assay, turbidity at 340 nm; type: biochemical; conditions: 72 h, pH 4.4, compound 100 μM, WT-TTR 7.2 μM, pH 4.4, 37° C.; read-out: % FF
So basically, if remaining activity at 100 µM comes in under 80% it's Satisfied, and if it's 80% or more it's Not satisfied.

{"Compound": "COc1cc(/C=C2\\SC(=S)N(c3ccc(O)cc3)C2=O)ccc1O [Compound 2189-0711]", "Discrete Label": "Not satisfied"}
{"Compound": "O=C(NC(c1cccc([N+](=O)[O-])c1)c1cc(Cl)c2cccnc2c1O)c1cccnc1 (stereo not drawn) [Compound K839-0117]", "Discrete Label": "Satisfied"}
{"Compound": "O=C1CSC(c2ccc(Cl)cc2Cl)N1c1ccc(Cl)cc1 (stereo not drawn) [Compound 8004-9890]", "Discrete Label": "Satisfied"}
{"Compound": "Cc1ccn2c(Nc3ccc(F)cc3)c(-c3ccccn3)nc2c1 [Compound C273-0218]", "Discrete Label": "Not satisfied"}
{"Compound": "O=C1/C(=C\\c2ccco2)SC(=S)N1c1cccc(F)c1 [Compound 2027-0159]", "Discrete Label": "Not satisfied"}
{"Compound": "O=C(CSc1nccn1-c1cccc(Cl)c1)Nc1cccc2ccccc12 [Compound C262-0464]", "Discrete Label": "Not satisfied"}
{"Compound": "O=C(O)c1cccc(-c2ccc(/C=C3\\SC(=S)N(c4cccc(C(F)(F)F)c4)C3=O)o2)c1 [Compound 2027-0438]", "Discrete Label": "Not satisfied"}
{"Compound": "Cc1cc(C(=O)Nc2cccnc2Cl)no1 [Compound C226-2576]", "Discrete Label": "Not satisfied"}
{"Compound": "Cc1ccccc1Nc1c(-c2ccc(Cl)s2)nc2ccc(Cl)cn12 [Compound C273-0244]", "Discrete Label": "Not satisfied"}
{"Compound": "CCC(=O)NC(c1ccc2c(c1)OCO2)c1cc(Cl)c2cccnc2c1O (stereo not drawn) [Compound K839-0017]", "Discrete Label": "Satisfied"}
{"Compound": "CSC1=NSC2=NC(=O)/C(=C\\c3ccc(Cl)cc3)C(=N)N12 [Compound C146-0181]", "Discrete Label": "Satisfied"}
{"Compound": "Nc1nc(F)cc(Oc2ccc(F)cc2)n1 [Compound 1544-0071]", "Discrete Label": "Not satisfied"}
{"Compound": "O=C1CCCC2=C1C(c1cccc(O)c1)NC(=S)N2 (stereo not drawn) [Compound C157-0040]", "Discrete Label": "Not satisfied"}
{"Compound": "Cn1ncc(/N=C/c2ccccc2O)c1C(=O)N1CCOCC1 [Compound 2019-0006]", "Discrete Label": "Satisfied"}
{"Compound": "CCOC(=O)c1sc(=S)n(-c2cccc3ccccc23)c1N [Compound R052-0949]", "Discrete Label": "Not satisfied"}
{"Compound": "Clc1ccccc1C1CC(c2cccs2)Nc2nnnn21 (stereo not drawn) [Compound K832-3346]", "Discrete Label": "Satisfied"}
{"Compound": "Oc1ccccc1-c1nnc(S)o1 [Compound 0350-0160]", "Discrete Label": "Satisfied"}
{"Compound": "Cc1ccc(/C=c2/sc3nc4ccccc4n3c2=O)cc1 [Compound 3062-0586]", "Discrete Label": "Not satisfied"}
